Item-by-item account of Activity
- protocol_notes: Neuroprotective activity in human SH-SY5Y cells assessed as reduction of H2O2-induced apoptosis at 5 uM after 24 hrs by MTT assay relative to control
- Type: functional, cell-based
- Parameters: scale not given: the % may be the effect or the level left
Please give a number only; it is taken to be in %.

Examples with their reported Activity follow.
COc1cc(C(=O)OCCCCNC(=N)NCCS)cc(OC)c1OC; 32.5
COc1ccc(C(=O)OCCCCNC(=N)NCCS)cc1; 42.4
CC(O)CNC(=N)NCCS (stereo unspecified); 77.1
N=C(NCCN)NCCS; 66.3
N=C(NCCS)NCCCN; 77.3

Per the record, `COc1cc(OC)cc(C(=O)OCCCCNC(=N)NCCS)c1` has Activity of 62.1

----------
- protocol_notes: Neuroprotective activity in human SH-SY5Y cells assessed as reduction of H2O2-induced apoptosis at 5 uM after 24 hrs by MTT assay relative to control
- Type: functional, cell-based
- Parameters: scale not given: the % may be the effect or the level left
measurement_label: Activity

Per the record, `COc1cc(C(=O)OCCCCCCNC(=N)NCCS)cc(OC)c1O` has Activity of 78.5%

Per the record, `COc1cc(C(=O)OCCCCCNC(=N)NCCS)cc(OC)c1O` has Activity of 53.9%

Per the record, `N=C(NCCO)NCCS` has Activity of 56.4%

Per the record, `N=C(NCCS)NCCCCCCO` has Activity of 72.4%

Per the record, `N=C(NCCS)NCCCCO` has Activity of 68%

Per the record, `COc1cc(C(=O)OCCCNC(=N)NCCS)cc(OC)c1O` has Activity of 78.8%

Per the record, N=C(NCCS)NC1CCC(O)CC1 (centres undefined) has Activity of 31.6%

Per the record, CCC(O)CNC(=N)NCCS (centres undefined) has Activity of 75.8%

Per the record, CC(CO)NC(=N)NCCS (centres undefined) has Activity of 59.9%

Per the record, `N=C(NCCS)NCCCCCO` has Activity of 60%

Per the record, `COc1cc(C(=O)OCCCCNC(=N)N)cc(OC)c1O` has Activity of 76.7%

----------
- protocol_notes: Neuroprotective activity in human SH-SY5Y cells assessed as reduction of H2O2-induced apoptosis at 25 uM after 24 hrs by MTT assay relative to control
- Type: functional, cell-based
- Parameters: scale not given: the % may be the effect or the level left
Quick rule for you: Activity under 70% gets MET, anything else gets NOT MET.

Below are worked cases with known answers.
COc1cc(C(=O)OCCCNC(=N)NCCS)cc(OC)c1O; NOT MET
COc1cc(C(=O)OC2CCC(NC(=N)NCCS)CC2)cc(OC)c1O (stereo not given); MET
N=C(NCCO)NCCS; MET
N=C(NCCS)NC1CCC(O)CC1 (stereo not given); MET
N=C(NCCN)NCCS; NOT MET

-- ask Please indicate whether the reported Activity of `N=C(NCCS)NCCCCO` is strictly below 70%.
-- reply MET

-- ask Please indicate whether the reported Activity of `COc1cc(C(=O)OCCCCNC(=N)NCCS)cc(OC)c1O` is strictly below 70%.
-- reply MET

-- ask Please indicate whether the reported Activity of `N=C(NCCS)NCCCCCO` is strictly below 70%.
-- reply NOT MET

-- ask Please indicate whether the reported Activity of CC(O)CNC(=N)NCCS (stereo not given) is strictly below 70%.
-- reply MET

-- ask Please indicate whether the reported Activity of `COc1cc(OC)cc(C(=O)OCCCCNC(=N)NCCS)c1` is strictly below 70%.
-- reply MET

-- ask Please indicate whether the reported Activity of CC(CO)NC(=N)NCCS (stereo not given) is strictly below 70%.
-- reply MET

-- ask Please indicate whether the reported Activity of CCC(O)CNC(=N)NCCS (stereo not given) is strictly below 70%.
-- reply NOT MET
